testedTarget: human GlyT2 (Homo sapiens)
Sequence (Q9Y345 whole entry): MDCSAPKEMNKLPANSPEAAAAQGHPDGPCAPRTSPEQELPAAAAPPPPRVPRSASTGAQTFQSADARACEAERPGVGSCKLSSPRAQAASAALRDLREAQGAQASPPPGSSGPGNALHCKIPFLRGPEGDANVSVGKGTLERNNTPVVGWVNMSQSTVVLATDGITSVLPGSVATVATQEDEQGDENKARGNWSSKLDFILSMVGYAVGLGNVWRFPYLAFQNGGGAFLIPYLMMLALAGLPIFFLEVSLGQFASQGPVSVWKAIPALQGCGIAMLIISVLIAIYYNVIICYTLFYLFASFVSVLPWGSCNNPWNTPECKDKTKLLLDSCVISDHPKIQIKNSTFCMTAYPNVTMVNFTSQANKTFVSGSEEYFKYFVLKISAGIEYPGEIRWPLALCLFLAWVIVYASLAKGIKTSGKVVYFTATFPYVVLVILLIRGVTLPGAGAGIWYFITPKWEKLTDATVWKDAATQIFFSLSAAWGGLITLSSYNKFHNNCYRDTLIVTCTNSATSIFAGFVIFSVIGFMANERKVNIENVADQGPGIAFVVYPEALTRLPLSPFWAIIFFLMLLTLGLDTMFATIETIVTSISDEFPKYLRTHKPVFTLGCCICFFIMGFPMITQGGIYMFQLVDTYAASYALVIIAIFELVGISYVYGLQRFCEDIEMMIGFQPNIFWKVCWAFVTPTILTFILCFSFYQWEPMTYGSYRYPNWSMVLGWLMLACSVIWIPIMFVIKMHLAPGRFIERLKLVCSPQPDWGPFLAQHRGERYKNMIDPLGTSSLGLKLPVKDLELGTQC
protocolDetails: Glycine uptake assay (GlyT2 assay)
runConditions: HEK 293 cells stably transfected with human GlyT2; 14C-glycine 10 μM; room temperature 2-3 hours
endpointLabel: IC50

IC50 for `CCC[C@H](NC(=O)c1cc(OC)c(OCc2ccccc2)c(OC)c1)C(=O)NCC1(N(C)C)CCCC1` is < 10 nM
